- Tested on: RSV A2
- experimental details: Inhibition of RSV infectivity in vitro, plaque assay on HEp-2 cell monolayers
- Assay type: cell-based, respiratory syncytial virus (RSV)
- stated conditions: prior exposure (1 hour) of HEp-2 cell monolayers; read-out: median inhibitory concentration (IC50)
- Procedure: Inhibition of virus infectivity in vitro. HEp-2 cell monolayers were grown in 96-well tissue culture plates (Falcon, Becton Dickson and Co.; Franklin Lakes, N.J.) with complete medium. […] Anti-viral activity was also assessed 1 hour after the cells were infected, or following simultaneous exposure of the monolayers to virus in a 1:1 mixture with the indicated doses of chemokines or CCL5 peptides. […] Plaque assay. […] Bound antibody was detected using 0.05% 4-chloro-1-naphtol containing 0.1% H2O2 in PBS. […]
measurement name: pIC50
Scale note: pIC50 = -log10(concentration in M).

Need pIC50 of CCL5: recombinant human chemokine CCL5 (RANTES), full length polypeptide of SEQ ID NO:1 , thanks.
6.14
